Assay: Static small-animal PET imaging 1 h and 2 h p.i.
Conditions: male, BALB/c nu/nu, mouse, tumor / kidney, iv, 500 pmol, total radioactivity
Non-standard residues stand in square brackets, D forms with d. Residues, ends and D or L forms follow the SMILES beside them. *: point of attachment. DOTA = O=C(O)CN1CCN(CC(=O)O)CCN(CC(=O)*)CCN(CC(=O)O)CC1; EuK = O=C(O)CC[C@H](NC(=O)N[C@@H](CCCCN*)C(=O)O)C(=O)O; 2Nal = N[C@@H](Cc1ccc2ccccc2c1)C(=O)O; Trx = NC[C@H]1CC[C@H](C(=O)O)CC1
quantity.name: tissue to tissue ratio at 2 h
# answer = number (no unit)

Form field: reported tissue to tissue ratio at 2 h of O=C(O)CC[C@H](NC(=O)N[C@@H](CCCCNC(=O)[C@H](Cc1ccc2ccccc2c1)NC(=O)[C@H](Cc1c[nH]cn1)NC(=O)[C@H](CCC(=O)O)NC(=O)[C@H](Cc1c[nH]cn1)NC(=O)[C@H](CCC(=O)O)NC(=O)[C@H](Cc1c[nH]cn1)NC(=O)[C@H](CCC(=O)O)NC(=O)[C@H]1CC[C@H](CNC(=O)CN2CCN(CC(=O)O)CCN(CC(=O)O)CCN(CC(=O)O)CC2)CC1)C(=O)O)C(=O)O [[^68Ga]Ga-PS2, metal not drawn] ({DOTA-Trx}-EHEHEH[2Nal]-EuK)
0.73
